Hello, the source for this data is ChEMBL document CHEMBL1155691, in case you need it.

Item-by-item account of MIC
Tested on: Escherichia coli
method: Antimicrobial activity against Escherichia coli ATCC 25922
Assay type: functional

In plain terms, C[C@@H]1CC[C@@]2(C)[C@@H](CC[C@]3(C)[C@@H]2CC[C@@]3(C)CO)[C@]1(C)Cc1cc(C(=O)O)ccc1O [COMNASTIN A] has a documented MIC of 128 µg/mL

In plain terms, C[C@@H]1CC[C@@]2(C)[C@@H](CC[C@]3(C)[C@@H]2CC[C@@]3(C)C(=O)O)[C@]1(C)Cc1cc(C(=O)O)ccc1O [COMNASTIN C] has a documented MIC of 64 µg/mL

In plain terms, C[C@@H]1CC[C@@]2(C)[C@@H](CC[C@]3(C)[C@@H]2CC[C@@]3(C)C=O)[C@]1(C)Cc1cc(C(=O)O)ccc1O [COMNASTIN B] has a documented MIC of 128 µg/mL

In plain terms, CN(C)[C@@H]1C(O)=C(C(N)=O)C(=O)[C@@]2(O)C(O)=C3C(=O)c4c(O)cccc4[C@@](C)(O)[C@H]3C[C@@H]12 [TETRACYCLINE] has a documented MIC of 64 µg/mL

In plain terms, COC(OC)[C@]1(C)CC[C@@H]2[C@@]3(C)CC[C@@H](C)[C@@](C)(Cc4cc(C(=O)O)ccc4O)[C@@H]3CC[C@]21C [COMNASTIN D] has a documented MIC of 128 µg/mL

* * *

Item-by-item account of MIC
Test system: Staphylococcus epidermidis
method: Antimicrobial activity against Staphylococcus epidermidis ATCC 12228
Type: functional
Your answer is read as µg/mL, so omit the unit and give the number.

# molecule, value.units, MIC
records = [
    ("C[C@@H]1CC[C@@]2(C)[C@@H](CC[C@]3(C)[C@@H]2CC[C@@]3(C)C=O)[C@]1(C)Cc1cc(C(=O)O)ccc1O [COMNASTIN B]", "µg/mL", 16),
    ("COC(OC)[C@]1(C)CC[C@@H]2[C@@]3(C)CC[C@@H](C)[C@@](C)(Cc4cc(C(=O)O)ccc4O)[C@@H]3CC[C@]21C [COMNASTIN D]", "µg/mL", 32),
    ("CC(=O)[C@@H]1CC[C@@H]2[C@@]3(C)CC[C@@H](C)[C@@](C)(Cc4cc(C(=O)O)ccc4O)[C@@H]3CC[C@]21C [COMNASTIN E]", "µg/mL", 4),
    ("C[C@@H]1CC[C@@]2(C)[C@@H](CC[C@]3(C)[C@@H]2CC[C@@]3(C)C(=O)O)[C@]1(C)Cc1cc(C(=O)O)ccc1O [COMNASTIN C]", "µg/mL", 16),
    ("C[C@@H]1CC[C@@]2(C)[C@@H](CC[C@]3(C)[C@@H]2CC[C@@]3(C)CO)[C@]1(C)Cc1cc(C(=O)O)ccc1O [COMNASTIN A]", "µg/mL", 16),
]

# context switch: different molecule, same MIC
In plain terms, O=C(N[C@H](CO)[C@H](O)c1ccc([N+](=O)[O-])cc1)C(Cl)Cl [CHLORAMPHENICOL] has a documented MIC of 4
